# Test system: immortalized SMA fibroblasts
# test-name: Distribution of the SMN protein to Cajal bodies (CBs) in immortalized SMA fibroblasts, immunolabeling, cells counted
# Assay type: cell-based, human
# condition-details: 24 hours of treatment at 2 micrograms/ml; immortalized SMA fibroblasts
measured-quantity: induction factor of cells with SMN protein in CBs (DMSO = 1)

The measured induction factor of cells with SMN protein in CBs (DMSO = 1) associated with CC(C)C[C@H](CN)CC(=O)O reads 1.7
